# studyTarget: T1, extracellular tau in the form of paired helical filaments (ePHF tau) (UniProt P10636-8 1-441, limits assumed)
# T1 construct: Aggregated, hyperphosphorylated tau preparation; not a single defined polypeptide
# T1 sequence (P10636 other isoform, or with tags, fused parts or gaps limits assumed): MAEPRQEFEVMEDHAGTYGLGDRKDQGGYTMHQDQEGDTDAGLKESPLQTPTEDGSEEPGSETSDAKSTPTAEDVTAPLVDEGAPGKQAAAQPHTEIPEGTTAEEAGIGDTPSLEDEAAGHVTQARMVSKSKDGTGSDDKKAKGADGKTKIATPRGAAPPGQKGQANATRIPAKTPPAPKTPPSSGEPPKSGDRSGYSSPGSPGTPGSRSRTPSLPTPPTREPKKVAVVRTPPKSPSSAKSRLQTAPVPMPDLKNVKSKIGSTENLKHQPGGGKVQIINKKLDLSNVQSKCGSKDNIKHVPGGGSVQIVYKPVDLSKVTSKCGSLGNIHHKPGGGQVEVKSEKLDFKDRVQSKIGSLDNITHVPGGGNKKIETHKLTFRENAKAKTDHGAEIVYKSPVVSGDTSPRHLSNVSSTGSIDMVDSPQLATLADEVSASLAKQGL
# testName: ePHF tau ELISA, ePHF coated; antibody at 55.6 ng/ml; anti-mouse-HRP
Reported OD450 is given for each of the following binders.
Use OD450 as the unit, but write only the number.

anti-tau antibody MC1 expressed from viral genome construct MC1LP2AH (TAU_ITR82; SEQ ID NO: 2071) (antibody, V domains shown) VH: QVQLQQSGAELMKPGASVKISCKATGYTFSNYWIEWVKQRPGHGLEWIGEILPGSDSIKYNENFKGKATFTADTSSNTAYMQLSSLTSEDSAVYYCARRGNYPDYWGQGTTLTVSS VL: DVVMTQTPLSLPVSLGDQASISCRSSQSLVHSNGNTYLHWYLQKPGQSPKLLIYKVSNRFSGVPDRFSGSGSGTDFTLKISRVEAEDLGVYFCSQSTHVPLTFGAGTKLELKR = 0.2

OD450 lookup needed for anti-tau antibody MC1 expressed from viral genome construct MC1LF2AH (TAU_ITR79; SEQ ID NO: 2068) (antibody, V domains shown) VH: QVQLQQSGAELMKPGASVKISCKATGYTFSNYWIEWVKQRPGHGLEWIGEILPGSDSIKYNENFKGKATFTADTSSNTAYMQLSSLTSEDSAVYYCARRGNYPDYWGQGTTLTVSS VL: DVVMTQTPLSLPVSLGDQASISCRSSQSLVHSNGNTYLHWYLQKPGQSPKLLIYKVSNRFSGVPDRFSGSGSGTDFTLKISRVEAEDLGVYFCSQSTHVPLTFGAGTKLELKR , thanks. 0.4

Check anti-tau antibody MC1 expressed from viral genome construct MC1HIRESL (TAU_ITR75; SEQ ID NO: 2064) (antibody, mouse IgG1, kappa, V domains shown) VH: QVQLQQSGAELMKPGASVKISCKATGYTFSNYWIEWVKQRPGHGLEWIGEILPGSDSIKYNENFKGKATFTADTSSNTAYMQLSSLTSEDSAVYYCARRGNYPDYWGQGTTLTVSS VL: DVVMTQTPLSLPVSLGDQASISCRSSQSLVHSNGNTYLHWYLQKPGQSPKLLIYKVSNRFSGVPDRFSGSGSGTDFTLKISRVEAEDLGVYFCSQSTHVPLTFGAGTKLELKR too. 0.2

Check anti-tau antibody MC1 expressed from viral genome construct MC1LF.P2AH (TAU_ITR83; SEQ ID NO: 2072) (antibody, V domains shown) VH: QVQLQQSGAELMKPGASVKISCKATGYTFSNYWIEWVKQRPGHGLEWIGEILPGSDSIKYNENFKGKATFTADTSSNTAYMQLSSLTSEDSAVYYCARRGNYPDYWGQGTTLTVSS VL: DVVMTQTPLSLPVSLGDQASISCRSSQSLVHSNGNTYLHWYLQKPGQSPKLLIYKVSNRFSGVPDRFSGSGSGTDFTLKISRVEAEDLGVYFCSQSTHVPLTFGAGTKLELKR too. 0.1

Where these numbers come from: patent US20220339270A1
